assayed_system: METTL3/METTL14 (Homo sapiens, UniProt Q86U44)
Sequence (Q86U44 whole entry, species assumed): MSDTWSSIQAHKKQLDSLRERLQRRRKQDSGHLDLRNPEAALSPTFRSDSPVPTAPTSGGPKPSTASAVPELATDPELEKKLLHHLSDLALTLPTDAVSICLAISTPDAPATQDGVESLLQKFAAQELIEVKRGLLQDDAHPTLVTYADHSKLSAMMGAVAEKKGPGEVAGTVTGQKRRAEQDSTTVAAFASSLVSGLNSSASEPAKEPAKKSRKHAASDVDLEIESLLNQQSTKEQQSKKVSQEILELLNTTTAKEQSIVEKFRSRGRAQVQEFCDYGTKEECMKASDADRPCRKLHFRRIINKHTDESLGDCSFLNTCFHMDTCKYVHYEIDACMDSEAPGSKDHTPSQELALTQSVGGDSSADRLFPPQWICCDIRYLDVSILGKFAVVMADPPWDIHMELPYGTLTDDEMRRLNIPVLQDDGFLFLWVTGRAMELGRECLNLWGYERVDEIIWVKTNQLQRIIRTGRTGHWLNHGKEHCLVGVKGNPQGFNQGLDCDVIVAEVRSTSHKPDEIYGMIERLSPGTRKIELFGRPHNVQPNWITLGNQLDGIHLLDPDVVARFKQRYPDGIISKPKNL
Sequence (Q9HCE5 whole entry partner, species assumed): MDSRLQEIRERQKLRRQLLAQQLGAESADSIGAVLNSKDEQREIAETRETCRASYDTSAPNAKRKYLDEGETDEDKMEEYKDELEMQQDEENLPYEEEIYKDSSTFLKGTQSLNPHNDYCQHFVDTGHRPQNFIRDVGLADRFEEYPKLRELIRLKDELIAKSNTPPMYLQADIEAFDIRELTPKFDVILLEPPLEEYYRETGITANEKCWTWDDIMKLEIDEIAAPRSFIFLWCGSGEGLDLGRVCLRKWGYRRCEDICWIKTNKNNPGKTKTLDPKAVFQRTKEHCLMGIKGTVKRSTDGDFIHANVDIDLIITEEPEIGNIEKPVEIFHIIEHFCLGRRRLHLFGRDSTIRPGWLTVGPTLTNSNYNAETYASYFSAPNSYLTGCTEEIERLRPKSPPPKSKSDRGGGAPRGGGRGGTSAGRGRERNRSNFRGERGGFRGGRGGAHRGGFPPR
protocol_summary: METTL3-14 standard enzyme assay (3H-SAM flashplate scintillation)
Format: biochemical
reported_conditions: METTL3/METTL14 2.5 nM, RNA 100 nM, 3H-SAM 100 nM, 30 min
Attribute: IC50

# molecule, assayed_system, IC50
rows = [
    ("CNc1ccc2ccc(OCc3cncc(-n4cc(-c5ncco5)c5c(N)ncnc54)c3)cc2n1 [Compound I-235]", "METTL3/METTL14 (Homo sapiens, UniProt Q86U44)", "< 10 nM"),
    ("CCc1cc(N(C)C2CC2)c2ccc(OCc3cncc(-n4cc(-c5ccn(C)n5)c5c(N)ncnc54)c3)cc2n1 [Compound I-136]", "METTL3/METTL14 (Homo sapiens, UniProt Q86U44)", "< 10 nM"),
    ("Nc1ncnc2c1c(C1CCCC1)cn2-c1cncc(COc2ccc3ccc(N4CCC4)nc3c2)c1 [Compound I-94]", "METTL3/METTL14 (Homo sapiens, UniProt Q86U44)", "< 10 nM"),
    ("C[C@@H]1CCN1c1ccc2ccc(OCc3cncc(-n4cc(C5CCCC5)c5c(N)ncnc54)c3)cc2n1 [Compound I-124]", "METTL3/METTL14 (Homo sapiens, UniProt Q86U44)", "10 to 100 nM"),
]
